B1: Zinc finger homeobox protein 4, residues 2086 to 2141; numbered along this chain, Q86UP3 (parent)
chain: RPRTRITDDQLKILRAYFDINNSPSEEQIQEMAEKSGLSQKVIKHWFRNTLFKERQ

- Variants of: B1
- method_summary: abundance fitness (aPCA) (normalised: wild type 0, dead -1); higher = more abundant; growth selection in yeast, the domain comes from the species named
- run_parameters: Homo sapiens
measured_parameter: abundance fitness
Lab note: jot the number down without any unit.

S39E    0.127
V42N    -0.212

// moving on: another record for abundance fitness
Query: I am curious: what abundance fitness value has been reported for E31N ?
Reply: 0.011
